Attribution: PubChem BioAssay

- Target or test system: Torsin-1A-interacting protein 1 (Homo sapiens) (UniProt Q5JTV8)
- Sequence (Q5JTV8 whole entry, looked up): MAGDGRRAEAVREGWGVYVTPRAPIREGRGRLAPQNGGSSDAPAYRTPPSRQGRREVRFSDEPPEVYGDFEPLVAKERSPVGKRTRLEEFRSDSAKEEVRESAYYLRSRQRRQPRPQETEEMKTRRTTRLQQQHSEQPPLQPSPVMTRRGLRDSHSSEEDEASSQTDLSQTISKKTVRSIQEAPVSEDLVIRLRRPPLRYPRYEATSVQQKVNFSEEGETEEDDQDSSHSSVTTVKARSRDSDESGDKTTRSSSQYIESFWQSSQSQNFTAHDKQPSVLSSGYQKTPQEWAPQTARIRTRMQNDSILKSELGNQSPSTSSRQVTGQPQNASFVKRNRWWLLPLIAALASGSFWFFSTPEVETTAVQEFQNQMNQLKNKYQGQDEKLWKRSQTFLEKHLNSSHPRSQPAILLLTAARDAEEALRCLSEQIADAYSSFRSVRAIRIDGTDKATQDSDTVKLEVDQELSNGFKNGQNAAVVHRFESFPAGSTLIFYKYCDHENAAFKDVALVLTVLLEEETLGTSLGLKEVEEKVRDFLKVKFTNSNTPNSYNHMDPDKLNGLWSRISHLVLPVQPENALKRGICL
- Test details: LAP1 binders from COS7 cell lysate, primary screen, small-molecule microarray, 635/667 nm fluorescence (AID 1116)
- Recorded conditions: COS7-hLAP1 lysate binding, 635 nm fluorescence, higher = more signal
Record Yes whenever composite z-score is at 0.6 or higher; record No when lower.

[
  {
    "Smiles text": "C=CCOC(=O)[C@H]1[C@@H]2C(=O)O[C@@H](c3ccccc3)[C@@H](c3ccccc3)N2[C@@H](c2ccc(OCCOC(=O)[C@H]3C[C@H]4C(=O)N[C@@H](CC(C)C)C(=O)N4[C@H]3c3ccc(O)cc3)cc2)[C@]12C(=O)Nc1ccc(I)cc12",
    "Assigned class": "Yes"
  },
  {
    "Smiles text": "C=CCOC(=O)[C@H]1[C@@H]2C(=O)O[C@@H](c3ccccc3)[C@@H](c3ccccc3)N2[C@@H](c2ccc(OCCOC(=O)[C@@H]3C[C@@H]4C(=O)N[C@@H](CCCC[N+](C)(C)C)C(=O)N4[C@@H]3c3ccc(O)cc3)cc2)[C@]12C(=O)Nc1ccccc12",
    "Assigned class": "No"
  },
  {
    "Smiles text": "O=C1c2ccccc2[C@](Cc2ccccc2I)(C(=O)NC2CC2)[C@H](c2ccc(CO)cc2)N1C1CCCCC1",
    "Assigned class": "No"
  },
  {
    "Smiles text": "CC(C)(C)OC(=O)CC[C@@]12N=C(c3ccc(OCCCO)cc3)O[C@@H]1c1ccccc1N(CCS(=O)(=O)c1ccccc1)C2=O",
    "Assigned class": "Yes"
  },
  {
    "Smiles text": "CCCCCCC#C[Si](O[C@H](c1ccccc1)c1cn([C@H](CO)Cc2ccccc2)nn1)(C(C)C)C(C)C",
    "Assigned class": "Yes"
  }
]

----------
# key: entry, value: composite z-score
- Target or test system: Dihydroorotate dehydrogenase (quinone), mitochondrial (Plasmodium falciparum (isolate 3D7)) (UniProt Q08210)
- Sequence (Q08210 whole entry, looked up): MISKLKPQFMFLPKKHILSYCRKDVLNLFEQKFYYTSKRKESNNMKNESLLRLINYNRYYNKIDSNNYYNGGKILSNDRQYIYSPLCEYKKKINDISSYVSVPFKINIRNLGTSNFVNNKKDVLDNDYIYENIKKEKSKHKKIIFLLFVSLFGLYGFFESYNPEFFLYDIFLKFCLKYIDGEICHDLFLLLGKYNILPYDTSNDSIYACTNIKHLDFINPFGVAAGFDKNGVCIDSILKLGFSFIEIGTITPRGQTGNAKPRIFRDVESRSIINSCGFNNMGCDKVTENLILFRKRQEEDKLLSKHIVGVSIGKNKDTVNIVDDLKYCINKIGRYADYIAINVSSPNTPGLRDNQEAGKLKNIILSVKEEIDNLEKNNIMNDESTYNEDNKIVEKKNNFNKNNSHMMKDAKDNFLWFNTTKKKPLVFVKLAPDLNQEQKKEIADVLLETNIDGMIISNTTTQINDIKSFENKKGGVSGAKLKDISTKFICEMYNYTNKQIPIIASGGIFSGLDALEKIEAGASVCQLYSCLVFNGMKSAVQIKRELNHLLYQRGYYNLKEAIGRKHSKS
- Test details: PfDHODH enzyme inhibitors, primary screen, biochemical, C-terminal His tag, absorbance 600 nm (AID 1175);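 note: recombinant parasite enzyme with a five histidine tag at its C terminus; test concentration not given here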
- Recorded conditions: DCIP absorbance 600 nm, higher = more signal, called active from +8 up or from −8 down
Outcome measure: composite z-score

[
  {
    "Compound": "[N-]=[N+]=NCc1ccccc1[C@@H]1OC(c2ccc(OCCCO)cc2)=N[C@]1(CCS(=O)(=O)c1ccccc1)C(=O)NCc1ccccc1",
    "Reported value": 0.59
  },
  {
    "Compound": "COCCOC(=O)N1C(=O)[C@@]2(c3ccccc31)[C@H](c1ccccc1OCCO)N1[C@H](c3ccccc3)[C@H](c3ccccc3)OC(=O)[C@H]1[C@@H]2C(=O)Nc1nc2ccccc2s1",
    "Reported value": 0.662
  },
  {
    "Compound": "C=C(CCCC)C(=O)CC[C@@H](OC(=O)c1cccnc1)c1ccc(CO)o1",
    "Reported value": -1.05
  },
  {
    "Compound": "CC(C)(C)OC(=O)CC[C@@]1(C(=O)NCC(O)CO)N=C(c2ccc(OCCCO)cc2)O[C@@H]1c1ccccc1N=[N+]=[N-] (some centres not stated)",
    "Reported value": 0.536
  },
  {
    "Compound": "O=C1NCC(=O)N2[C@@H]1C[C@@H](C(=O)O)[C@H]2c1cccc(OCCO)c1",
    "Reported value": 0.97
  },
  {
    "Compound": "CCCCC=C[C@@H](NC(=O)Oc1cccc(C(F)(F)F)c1)c1ccccc1",
    "Reported value": -3.25
  },
  {
    "Compound": "C[C@]1(C(=O)NC2CC2)c2ccccc2C(=O)N(Cc2cc(C(F)(F)F)cc(C(F)(F)F)c2)[C@H]1c1ccc(CO)cc1",
    "Reported value": 0.262
  }
]
